assay: Toxicity liver stage against HepG2, at 10uM; format: cell-based; design: test concentration 10 uM, cell line HepG2-A16-CD81EGFP; conditions: human, HepG2-A16-CD81EGFP cells; read-out: INHIBITION
Measured cytotoxicity at 10 µM, listed per entry for reference.
Supply the numeric figure in %, leaving out any unit text.

Example entries begin here.
[
  {
    "molecule": "C/C=C(\\C)CN1C[C@H](NC(=O)CCOC)[C@@H](c2ccc(C)o2)C1",
    "cytotoxicity at 10 µM / %": 7.06
  },
  {
    "molecule": "Cc1nc(CN2CCC23CCN(C(=O)c2ccncc2)CC3)cs1",
    "cytotoxicity at 10 µM / %": 0.933
  },
  {
    "molecule": "Cc1cccc(C(=O)N(C)C2CCN(c3ccccn3)CC2)c1C",
    "cytotoxicity at 10 µM / %": 1.84
  },
  {
    "molecule": "O=C(O)C(c1cccc2c1OCC2)N1CCC(N2CCSCC2)CC1 (stereo unspecified)",
    "cytotoxicity at 10 µM / %": 6.14
  }
]

input: Dear colleague, I am looking for the recorded cytotoxicity at 10 µM of the following molecule: Cc1cnn(C2CN(c3ncnc4[nH]ccc34)C2)c1
output: 8

input: Dear colleague, I am looking for the recorded cytotoxicity at 10 µM of the following molecule: O=C(O)c1ccc(S(=O)(=O)Nc2c(F)cccc2-n2cccn2)cc1
output: -8.8

input: Dear colleague, I am looking for the recorded cytotoxicity at 10 µM of the following molecule: FC(F)(F)Cn1ccnc1CNCC1CCCN1c1cccnn1 (stereo unspecified)
output: -26.6

input: Dear colleague, I am looking for the recorded cytotoxicity at 10 µM of the following molecule: Cn1c(C(F)(F)F)nn(CCNC(=O)c2nc3ccccc3s2)c1=O
output: 1.79

input: Dear colleague, I am looking for the recorded cytotoxicity at 10 µM of the following molecule: Cn1c(C(=O)N2CCC(C(=O)N3CCCC3)CC2)c(Cl)c2ccccc21
output: 3.12

input: Dear colleague, I am looking for the recorded cytotoxicity at 10 µM of the following molecule: CC(C)c1n[nH]c(C2CN(C(=O)c3csnn3)CCO2)n1 (stereo unspecified)
output: -4.89

input: Dear colleague, I am looking for the recorded cytotoxicity at 10 µM of the following molecule: O=C(NCc1cc(O)ncn1)C1CCOc2ccccc2C1 (stereo unspecified)
output: -6.01
